Recorded LD10 for the following molecules
system: Mus musculus; test: Toxicity in ip dosed C3H X DBA2 F1 hybrid mouse […] with mouse L1210 cells on day 0 and dosed once daily on days 1 to 5 measured after 50 days; type: organism-based; conditions: in vivo, 1200 h
Please respond with the number in mg/kg and leave the unit unwritten.

structure.notation: C[n+]1ccccc1NC(=O)c1ccc(NC(=O)c2ccc(C(=O)Nc3ccc(C(=O)Nc4cccc[n+]4C)cc3)cc2)cc1.Cc1ccc(S(=O)(=O)[O-])cc1.Cc1ccc(S(=O)(=O)[O-])cc1
observed.property: LD10
unit.annotation: mg/kg
value.reported: 7

Task: Requested read-out: LD10. Entry: `C/C(=N\NC(=N)N)c1ccc(NC(=O)c2ccc(Nc3cc[n+](C)c4cc(N)ccc34)cc2)cc1.Cc1ccc(S(=O)(=O)O)cc1.Cc1ccc(S(=O)(=O)[O-])cc1`
Result: 31

Task: Next up: `COc1cc(C(=O)Nc2ccc(C(=O)Nc3ccc[n+](C)c3)cc2)ccc1C(=O)Nc1ccc(C(=O)Nc2ccc[n+](C)c2)cc1.Cc1ccc(S(=O)(=O)[O-])cc1.Cc1ccc(S(=O)(=O)[O-])cc1`
Result: 18
